# target or test system: h5-HT transporter (Homo sapiens, UniProt P31645)
# Construct: Human platelet membranes (Oceanix Biosciences Corporation, Hanover, Md., USA) were thawed; tissue Oceanix Biosciences Corporation, Hanover, Md., USA; host or cells: human platelet membranes
# Sequence (P31645 whole entry): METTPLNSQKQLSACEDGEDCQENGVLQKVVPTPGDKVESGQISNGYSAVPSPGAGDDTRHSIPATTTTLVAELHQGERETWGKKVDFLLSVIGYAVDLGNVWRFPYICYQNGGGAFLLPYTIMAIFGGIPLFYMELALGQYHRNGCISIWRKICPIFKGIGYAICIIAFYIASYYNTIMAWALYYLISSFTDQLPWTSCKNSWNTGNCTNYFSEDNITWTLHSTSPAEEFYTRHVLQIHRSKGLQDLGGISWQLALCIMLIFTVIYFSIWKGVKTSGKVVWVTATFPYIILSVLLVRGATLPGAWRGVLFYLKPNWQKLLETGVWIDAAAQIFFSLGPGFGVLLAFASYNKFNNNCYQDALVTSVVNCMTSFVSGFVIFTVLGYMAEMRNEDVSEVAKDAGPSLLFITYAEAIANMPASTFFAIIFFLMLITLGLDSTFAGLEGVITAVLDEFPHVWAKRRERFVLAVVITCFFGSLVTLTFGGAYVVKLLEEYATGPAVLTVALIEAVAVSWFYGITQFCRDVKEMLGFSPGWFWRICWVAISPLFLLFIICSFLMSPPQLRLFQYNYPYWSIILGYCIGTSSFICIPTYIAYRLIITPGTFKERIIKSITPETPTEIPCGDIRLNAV
# test protocol: Radioligand binding experiment for 5-HT transporter ([3H]paroxetine, human platelet membranes)
# measurement setup: human platelet membranes; [3H]paroxetine 0.5 nM; read-out: 5HTT pIC50 (converted)
# Method: The interaction of the compounds of Formula (I) with hα2-receptors and h5-HT-transporters was assessed in in vitro radioligand binding experiments. […] When equilibrium of binding is reached, the receptor bound radioactivity is separated from the non-bound radioactivity, and the receptor- or transporter-bound activity is counted. The interaction of the test compounds with the receptor is assessed in competition binding experiments. […]
endpoint: IC50 (µM)

a. COc1cc2c(cc1OC)C1=NOC(CN3CCN(C/C=C(\C)c4ccccc4F)CC3)C1CO2 (single isomer, unassigned) [Compound 359]
b. COc1cc2c(cc1OCCN(C)C)OCC1C2=NOC1CN1CCN(C/C(C)=C/c2ccccc2)CC1 (single isomer, unassigned) [Compound 341]
Problem: Compare a and b by numeric IC50 and name the larger one. Refer to your chosen entry by its label in the reply.
Result: a
(a: 0.0447 µM, b: 0.00219 µM)

###

# target or test system: hα2A receptor (Homo sapiens)
# Construct: expressed in transfected cells
# Sequence (P08913 whole entry): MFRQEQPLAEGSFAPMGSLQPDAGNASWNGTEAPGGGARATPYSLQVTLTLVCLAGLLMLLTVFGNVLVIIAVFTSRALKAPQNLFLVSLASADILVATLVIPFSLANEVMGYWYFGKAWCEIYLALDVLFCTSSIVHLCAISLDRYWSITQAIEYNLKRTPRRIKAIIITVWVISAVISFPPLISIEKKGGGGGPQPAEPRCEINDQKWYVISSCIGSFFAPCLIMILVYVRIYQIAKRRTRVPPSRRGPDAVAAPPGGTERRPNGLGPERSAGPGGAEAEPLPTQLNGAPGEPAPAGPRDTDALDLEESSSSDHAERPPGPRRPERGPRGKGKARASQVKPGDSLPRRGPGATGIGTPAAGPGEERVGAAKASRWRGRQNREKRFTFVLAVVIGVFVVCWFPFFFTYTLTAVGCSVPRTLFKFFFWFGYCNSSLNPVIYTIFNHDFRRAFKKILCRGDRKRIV
# test protocol: Radioligand binding experiment for hα2A receptor ([3H]-raulwolscine)
# measurement setup: membranes of CHO cells expressing human α2A receptor; [3H]raulwolscine 1 nM; read-out: hα2A pIC50 (converted)
endpoint: IC50 (nM)

Field: example entries. Status: answers known.
compound	unit of measurement	IC50
COc1cc2c(cc1OC)C1=NOC(CN3CCN(CC=Cc4ccc5c(c4)CCO5)CC3)C1CO2 (stereo not shown) [Compound 125]	nM	56.2
COc1cc2c(cc1OC)C1=NOC(CN3CCN(C/C=C/C=C/c4ccccc4)CC3)C1CO2 (single isomer, unassigned) [Compound 127]	nM	141
COc1cc2c(cc1OC)C1=NOC(CN3CCN(CCOc4ccc(F)cc4)CC3)C1CO2 (stereo not shown) [Compound 48]	nM	13.2
COc1cc2c(cc1OC(C)=O)C1=NOC(CN3CCN(C/C(C)=C/c4ccccc4)CC3)C1CO2 (single isomer, unassigned) [Compound 333]	nM	4.79
COc1cc2c(cc1OC)C1=NOC(CN3CCN(Cc4ccsc4)CC3)C1CO2 (stereo not shown) [Compound 300]	nM	347

A. COc1cc2c(cc1O)OCC1C2=NOC1CN1CCN(C/C(C)=C/c2ccccc2)CC1 (stereo not shown) [Compound 3]
B. COc1cc2c(cc1OC)C1=NOC(CN3CCN(CC(C)=Cc4cc(F)ccc4F)CC3)C1CO2 (stereo not shown) [Compound 199]
Problem: Compare A and B and name the one whose reported IC50 is smaller. Refer to your chosen entry by its label in the reply.
Result: B

###

# target or test system: h5-HT transporter (Homo sapiens)
# Construct: Human platelet membranes (Oceanix Biosciences Corporation, Hanover, Md., USA) were thawed; tissue Oceanix Biosciences Corporation, Hanover, Md., USA; host or cells: human platelet membranes
# test protocol: Radioligand binding experiment for 5-HT transporter ([3H]paroxetine, human platelet membranes)
# measurement setup: human platelet membranes; [3H]paroxetine 0.5 nM; read-out: 5HTT pIC50 (converted)
endpoint: IC50 (µM)

compound	target or test system	IC50 (µM)
COc1cc2c(cc1OC)C1=NOC(CN3CCN(CCCc4ccccc4)CC3)C1CO2 (centres unmarked)	h5-HT transporter (Homo sapiens)	0.017

I. COc1cc2c(cc1OC)C1=NOC(CN3CCN(CC=Cc4ccc5ccccc5c4)CC3)C1CO2 (centres unmarked)
II. CC(=O)Oc1ccc2c(c1)OCC1C2=NOC1CN1CCN(Cc2ccc3ccccc3c2)CC1 (centres unmarked)
Problem: Compare I and II by numeric IC50 and name the larger one. Refer to your chosen entry by its label in the reply.
Result: I
(I: 0.0234 µM, II: 0.0132 µM)

a. COc1cc2c(cc1OC)C1=NOC(CN3CCN(CC=Cc4ccc(F)cc4)CC3)C1CO2 (centres unmarked)
b. COc1cc2c(cc1OC)C1=NOC(CN3CCN(Cc4ccccc4C(F)(F)F)CC3)C1CO2 (centres unmarked)
Problem: Compare a and b and name the one whose reported IC50 is smaller. Refer to your chosen entry by its label in the reply.
Result: a
(a: 0.0158 µM, b: 1 µM)

P. C(=Cc1ccccc1)CN1CCN(CC2ON=C3c4cc5c(cc4OCC32)OCO5)CC1 (centres unmarked)
Q. COc1cc2c(cc1OC)C1=NOC(CN3CCN(Cc4cccn4C)CC3)C1CO2 (centres unmarked)
Problem: Compare P and Q by numeric IC50 and name the larger one. Refer to your chosen entry by its label in the reply.
Result: Q
(Q: 1 µM, P: 0.245 µM)

A. COc1cc2c(cc1OC)C1=NOC(CN3CCN(Cc4ccc5cc(C)ccc5c4)CC3)C1CO2 (centres unmarked)
B. COCCOc1ccc2c(c1)OCC1C2=NOC1CN1CCN(CC(C)=Cc2ccccc2)CC1 (centres unmarked)
C. COc1cc2c(cc1OC)C1=NOC(CN3CCN(CCc4ccc5c(c4)OCO5)CC3)C1CO2 (centres unmarked)
Problem: Rank the items in ascending order with respect to IC50. Rank them, then answer with their labels in that order.
Result: A, B, C

1. COc1cc2c(cc1OC)C1=NOC(CN3CCN(CC=Cc4ccc5c(c4)CCO5)CC3)C1CO2 (centres unmarked)
2. COc1cc2c(cc1OC)C1=NOC(CN3CCN(CCC(=O)c4ccccc4)CC3)C1CO2 (centres unmarked)
Problem: Compare 1 and 2 by numeric IC50 and name the larger one. Refer to your chosen entry by its label in the reply.
Result: 2
(2: 0.389 µM, 1: 0.0135 µM)

P. COc1ccc2c(c1)OCC1C2=NOC1CN1CCN(Cc2ccc3ccccc3c2)CC1 (centres unmarked)
Q. COc1cc2c(cc1OC)C1=NOC(CN3CCN(Cc4ccc([N+](=O)[O-])cc4)CC3)C1CO2 (centres unmarked)
R. COCCOCOc1ccc2c(c1)OCC1C2=NOC1CN1CCN(Cc2ccc3ccccc3c2)CC1 (centres unmarked)
S. COc1cc2c(cc1OC(C)=O)OCC1C2=NOC1CN1CCN(C/C=C(\C)c2ccccc2)CC1 (single isomer, unassigned)
Problem: Rank the items in ascending order with respect to IC50. Rank them, then answer with their labels in that order.
Result: R, P, S, Q
(R: 0.00501 µM, P: 0.0148 µM, S: 0.0372 µM, Q: 0.145 µM)

1. CC(=Cc1ccccc1)CN1CCN(CC2ON=C3c4ccc(OCCN(C)C)cc4OCC32)CC1 (centres unmarked)
2. COc1cc2c(cc1OC)C1=NOC(CN3CCN(CC(C)Oc4cccc(F)c4)CC3)C1CO2 (centres unmarked)
Problem: Compare 1 and 2 by numeric IC50 and name the larger one. Refer to your chosen entry by its label in the reply.
Result: 2
(2: 0.0182 µM, 1: 0.0112 µM)

A. COc1cc2c(cc1OC)C1=NOC(CN3CCN(C/C=C(\C)c4ccsc4)CC3)C1CO2 (single isomer, unassigned)
B. COc1cc2c(cc1OC)C1=NOC(CN3CCN(CC(Br)=Cc4ccccc4)CC3)C1CO2 (centres unmarked)
C. COc1cc2c(cc1OC)C1=NOC(CN3CCN(Cc4cccc(Br)c4)CC3)C1CO2 (centres unmarked)
Problem: Rank the items in ascending order with respect to IC50. Rank them, then answer with their labels in that order.
Result: A, B, C

Ref: patent US7169786B2
